METHOD_DESCRIPTION: Systemic (intravenous) pharmacokinetics in rats
Format: in vivo, rat
TEST_CONDITIONS: male, Sprague-Dawley, rat, plasma, iv, 4 mg/kg i.v., analyte = administered compound, read-out: Vss
MEASURED_PARAMETER: Vd (L/kg)
Return type: number; implicit unit L/kg.

Query: Name the reported Vd value associated with the molecule Nc1ccn([C@@H]2O[C@H](CO)[C@@H](O)C2(F)F)c(=O)n1
Reply: 2.48

====

METHOD_DESCRIPTION: Systemic (intravenous) pharmacokinetics in rats
Assay type: in vivo, rat
TEST_CONDITIONS: male, Sprague-Dawley, rat, plasma, iv, 4 mg/kg i.v., analyte = administered compound
MEASURED_PARAMETER: clearance (mL/min/kg)
Return type: number; implicit unit mL/min/kg.

Query: What value of clearance has been recorded for this entry: Nc1ccn([C@@H]2O[C@H](CO)[C@@H](O)C2(F)F)c(=O)n1
Reply: 4.23

====

METHOD_DESCRIPTION: Systemic (intravenous) pharmacokinetics in rats
Type: in vivo, rat
TEST_CONDITIONS: male, Sprague-Dawley, rat, plasma, iv, 4 mg/kg i.v., analyte = administered compound, read-out: Terminal t1/2
MEASURED_PARAMETER: half-life (h)
Dear colleague, please return just the value in h, with no unit written.

Query: Name the recorded half-life for Nc1ccn([C@@H]2O[C@H](CO)[C@@H](O)C2(F)F)c(=O)n1 .
Reply: 8.88
